target entity: T1, VEGFR-3-Fc (UniProt P35916 25-328)
T1 construct: domain: first three Ig domains; conditioned supernatant of 293T cells; also called VEGFR-3-Fc fusion protein; not shown: Fc fragment of the pIg vector
T1 sequence (looked up): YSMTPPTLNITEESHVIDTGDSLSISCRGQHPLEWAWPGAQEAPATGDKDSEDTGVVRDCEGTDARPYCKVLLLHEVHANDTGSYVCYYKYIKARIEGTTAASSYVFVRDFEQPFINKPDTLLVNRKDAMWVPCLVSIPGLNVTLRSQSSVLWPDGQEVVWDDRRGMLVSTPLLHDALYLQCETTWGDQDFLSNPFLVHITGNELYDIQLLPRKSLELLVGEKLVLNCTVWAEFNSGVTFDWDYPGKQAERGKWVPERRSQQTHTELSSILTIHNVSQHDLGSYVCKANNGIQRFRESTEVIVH
protocol notes: receptor-Fc IP

binder | binding result
54-3 (ligand) AHYNTEILKSIDNEWRKTQCMPIETLVDIFQEFGVATNTFFKPSCVPLMRCGGCCNSEGLQCVPTEESNITMQIMRIKPHQGQHIGEMSFLQHNKCECRPKKD | no binding
81-9 (ligand) AHYNTEILKFMDVYQRSYCHPIETLVDIFQEYPDEIEYIFKPSCVPLMRCGGCCNDEGLECVPTEESNITMQIMRITVPLSQGPKPVTISFLQHNKCECRPKKD | no binding
